The measurements presented in this section are drawn from PubChem BioAssay (NCI).

TGI values by entry
system: HOP-62 NSCLC; assay: NCI tumour cell line growth inhibition, 48 h

{"columns": ["COMPOUND", "TGI"],
 "data": [
  ["N#C/C(C(=O)Nc1ccc(Cl)cc1)=C(/N)N1CCCCC1", "> 100 µM"],
  ["CC1(C)C(O)C[C@@H](O)[C@@]2(C)C1CC[C@]1(C)C2C[C@@H](O)[C@@H]2C([C@@]3(C)CC[C@@H](C(C)(C)O)O3)CCC21C (some centres undefined)", "30.3 µM"],
  ["Nc1nc2c(s1)CCc1c-2c(Br)n(Cc2ccccc2)c1Br", "33.6 µM"],
  ["COC(CC1(/C=C/O[Si](C(C)C)(C(C)C)C(C)C)C(=O)N(C)c2ccccc21)OC (centres undefined)", "> 100 µM"],
  ["Clc1cc(Cl)cc(C2ON=C(c3ccccc3)N2C23CC4CC(CC(C4)C2)C3)c1 (centres undefined)", "> 10 µM"],
  ["O=C1Nc2c(C(F)(F)F)cccc2[C@@]1(c1ccc(O)cc1)c1ccc(OC(F)(F)F)cc1", "0.0661 µM"],
  ["CCOC(=O)c1c(Cl)nc2ccccc2c1N=[N+]=[N-]", "> 100 µM"],
  ["COCCCNC(=O)C1=C(C)NC(C)=C(C(=O)NCCCOC)C1", "> 100 µM"],
  ["C[C@]12CC/C(=N\\O)C=C1CC[C@@H]1[C@@H]2CC[C@]2(C)C(=N/O)/C(=C/c3ccc([N+](=O)[O-])cc3)C[C@@H]12", "> 100 µM"]
]}

* * *

test system: OVCAR-8 ovarian; test: NCI tumour cell line growth inhibition, 48 h
OBSERVABLE: log10(TGI) (log10 of the value in µM)

{"columns": ["SMILES_INPUT", "log10(TGI)"],
 "data": [
  ["COc1ccc2c(c1)[n+](=O)c(C(=O)c1ccco1)c(C(F)(F)F)n2[O-]", 0.97],
  ["c1cc2[nH]ncc2cc1-c1nc2ccc3[nH]ncc3c2c2c1CCCC2", 1.20],
  ["COc1ccc(C(=O)COC(=O)[C@H](C[Se][Se]C[C@H](NC(=O)c2ccc(Br)cc2F)C(=O)OCC(=O)c2ccc(OC)cc2)NC(=O)c2ccc(Br)cc2F)cc1", 0.27],
  ["COC(=O)[C@]12CC[C@@H](C)[C@H](C)[C@@H]1C1=CC[C@@H]3[C@@]4(C)C(C=O)=C[C@@](C)(COC(C)=O)C4=CC[C@@]3(C)[C@]1(C)CC2", 1.28],
  ["CC(=O)Nc1ccc(-c2nc3ccccc3s2)cc1I", 1.58],
  ["NCCN1C(=O)CN=C(c2ccc(Cl)cc2)c2cc(Cl)ccc21", 1.51],
  ["CCCCCCCCN(CCCCCCCC)CCCCCCNc1cc(OC)cc2cccnc12", 1.09]
]}

* * *

tested on: UACC-257 melanoma; experiment: NCI tumour cell line growth inhibition, 48 h

{"columns": ["COMPOUND", "TGI"],
 "data": [
  ["NC(N)=N/N=C/c1c(-c2cc(Cl)sc2Cl)nc2sccn12", "17.6 µM"],
  ["COc1ccc(C(SCC(N)C(=O)O)(c2ccccc2)c2ccccc2)cc1 (configuration not stated)", "> 100 µM"],
  ["O=c1oc2ccccc2c(O)c1/C=N/C(=S)NCCc1ccccc1", "> 100 µM"],
  ["CCc1n[nH]c(=O)n1/N=C/c1ccc(C)cc1", "> 100 µM"],
  ["CC[P+](C)(C)c1ccccc1", "> 100 µM"],
  ["CC1COc2c(N3CCN(C)CC3)c(F)cc3c(=O)c(C(=O)O)cn1c23 (configuration not stated)", "> 100 µM"],
  ["CO[C@@H]1C=C[C@@]23c4cc5c(cc4C(=O)O[C@H]2CN(C)[C@H]3C1)OCO5", "> 100 µM"],
  ["[O-][n+]1ccccc1S", "64.4 µM"],
  ["Clc1cccc(Cl)c1C1CSc2ccccc2N=C1c1ccccc1 (configuration not stated)", "27 µM"],
  ["CN(NC(=O)c1cccs1)C1=NCCCCN1", "> 100 µM"],
  ["Cn1cc(C2=C(c3cn(C)c4c([N+](=O)[O-])cccc34)C(=O)NC2=O)c2ccccc21", "> 25 µM"],
  ["NC1CCC(Nc2nc(NCc3ccc(-c4cccs4)nc3)c3ncn(C4CCCC4)c3n2)CC1 (configuration not stated)", "0.295 µM"],
  ["O=C(/C(=C\\c1ccc([N+](=O)[O-])cc1)S(=O)Cc1ccc(F)cc1)c1ccc(F)cc1 (configuration not stated)", "3.73 µM"],
  ["N#Cc1c(N)[nH]c(=S)c(C#N)c1-c1ccccc1", "> 100 µM"],
  ["CC(C)(C)Nc1noc(=O)n1C(C)(C)C", "> 100 µM"],
  ["Oc1ccc(N=C2CCC(=C(c3ccccc3)c3ccc(Nc4ccc(O)cc4)cc3)CC2)cc1", "> 100 µM"],
  ["CC1Oc2c(c(=O)oc3ccccc23)[C@@]1(C)CC1C[C@H](C)C(=O)O1 (some centres not stated)", "> 100 µM"],
  ["Cc1ccc(-c2cc(C(F)(F)F)nn2-c2ccc(S(N)(=O)=O)cc2)cc1", "> 58.3 µM"],
  ["CC1CC(=O)Nc2ccccc2N1C(=O)CN1CCC(CCCCN(C)C)CC1 (configuration not stated)", "> 100 µM"],
  ["COC(=O)/C(=N\\Nc1nc(=S)[nH]n1N)C(C#N)c1ccccc1 (configuration not stated)", "> 100 µM"],
  ["COc1c(C(=O)c2ccc([N+](=O)[O-])cc2)cc(C(C)(C)C)cc1C(C)(C)C", "59.3 µM"],
  ["Cc1ccc(Nc2c(C#N)[n+]([O-])c3cc(Cl)ccc3[n+]2[O-])cc1", "> 100 µM"]
]}
